Listing of recorded pIC50 by entry.
# ASSAYED_SYSTEM: UniProt Q9NYK1
# Sequence (Q9NYK1 27-1049): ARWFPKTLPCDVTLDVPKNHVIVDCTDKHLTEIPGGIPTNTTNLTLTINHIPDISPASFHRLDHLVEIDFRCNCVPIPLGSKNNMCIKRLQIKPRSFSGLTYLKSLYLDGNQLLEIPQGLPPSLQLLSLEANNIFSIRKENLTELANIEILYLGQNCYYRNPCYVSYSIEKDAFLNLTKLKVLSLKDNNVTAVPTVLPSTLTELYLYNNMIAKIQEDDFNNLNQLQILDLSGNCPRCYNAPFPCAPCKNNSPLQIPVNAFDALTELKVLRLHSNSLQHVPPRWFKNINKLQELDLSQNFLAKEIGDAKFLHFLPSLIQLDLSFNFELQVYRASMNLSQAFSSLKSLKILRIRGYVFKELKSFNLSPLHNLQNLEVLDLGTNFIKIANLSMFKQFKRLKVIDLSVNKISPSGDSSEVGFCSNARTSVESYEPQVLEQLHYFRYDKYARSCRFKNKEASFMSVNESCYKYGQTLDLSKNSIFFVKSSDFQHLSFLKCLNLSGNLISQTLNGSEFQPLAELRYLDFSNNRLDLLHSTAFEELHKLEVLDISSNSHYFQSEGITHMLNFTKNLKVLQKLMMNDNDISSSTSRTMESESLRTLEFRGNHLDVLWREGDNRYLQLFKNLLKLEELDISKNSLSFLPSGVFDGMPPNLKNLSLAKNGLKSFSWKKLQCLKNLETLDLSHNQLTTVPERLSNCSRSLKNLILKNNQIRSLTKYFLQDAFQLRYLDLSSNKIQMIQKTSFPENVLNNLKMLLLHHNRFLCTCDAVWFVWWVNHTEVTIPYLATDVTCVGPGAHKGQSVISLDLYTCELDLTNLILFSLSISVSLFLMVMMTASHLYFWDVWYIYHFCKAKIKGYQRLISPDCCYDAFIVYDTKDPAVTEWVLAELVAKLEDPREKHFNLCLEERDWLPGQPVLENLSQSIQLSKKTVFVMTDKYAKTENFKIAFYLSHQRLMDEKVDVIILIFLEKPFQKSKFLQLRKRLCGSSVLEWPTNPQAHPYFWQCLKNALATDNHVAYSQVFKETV
# METHOD_NOTES: TLR7 inhibition reporter assay (HEK-Blue, SEAP)
# ASSAY_SETUP: HEK-Blue cells overexpressing human TLR7, gardiquimod 7.5 μM stimulation
pIC50: −log10 of the molar value.
ENDPOINT_NAME: pIC50

COMPOUND: COc1ccc(-c2[nH]c3ccc(-c4ccc(OC5CCN(C)CC5)cc4)cc3c2C(C)C)cc1OC
ENDPOINT_NAME: pIC50
NUMERIC_VALUE: 7.47

COMPOUND: Cc1cc(-c2[nH]c3ccc(-c4cc(NC(=O)OC(C)(C)C)c5nccn5c4)cc3c2C(C)C)cc(C)n1
ENDPOINT_NAME: pIC50
NUMERIC_VALUE: 6.76

COMPOUND: CC(C)c1c(-c2ccnc3[nH]ncc23)[nH]c2ccc(-c3cc(N4CCC(N)CC4)ncn3)cc12
ENDPOINT_NAME: pIC50
NUMERIC_VALUE: 6.86

COMPOUND: Cc1cc(-c2[nH]c3ccc(-c4cccnc4)cc3c2C(C)C)cc(C)n1
ENDPOINT_NAME: pIC50
NUMERIC_VALUE: 7.20

COMPOUND: Cc1cc(-c2[nH]c3ccc(-c4nnc(C5CCC(C(F)(F)F)CC5)o4)cc3c2C(C)C)ccn1 (centres unmarked)
ENDPOINT_NAME: pIC50
NUMERIC_VALUE: 5.57

COMPOUND: Cc1cc(-c2[nH]c3ccc(-c4nc(C(=O)NCCCN5CCCC5)co4)cc3c2C(C)C)cc(C)n1
ENDPOINT_NAME: pIC50
NUMERIC_VALUE: 7.92

COMPOUND: Cc1cc(-c2[nH]c3ccc(-c4cn5c(n4)CNCC5)cc3c2C(C)C)cc(C)n1
ENDPOINT_NAME: pIC50
NUMERIC_VALUE: 7.32

COMPOUND: Cc1cc(-c2[nH]c3ccc(-c4ccc(N5CCC(N(C)C)CC5)nc4)cc3c2C(C)C)cc(C)n1
ENDPOINT_NAME: pIC50
NUMERIC_VALUE: 8.17

meta.source: patent US11420958B2
